Values were extracted from PubChem BioAssay (NCI).

Please go through the items and note down their growth inhibition.
- experiment.description: NCI Yeast Anticancer Drug Screen. Data for the mec2-1 strain (AID 157)
- conditions.used: S. cerevisiae mec2-1 strain, at 50.0 µM, active compounds read high
About 79,000 compounds went through this panel and 15% of them were active in at least one assay; those are over-represented in the sample as a whole.
Lab book: enter the figure in %, no units written.

Could you tell me which growth inhibition is on file for COc1ccc(C2ON(c3ccccc3)CC=C2C)cc1 (stereo not given) ?
-3.2

Could you tell me which growth inhibition is on file for CC(C)(Cc1ccccc1)NC1=NCCO1 ?
-18.8

Could you tell me which growth inhibition is on file for Clc1ccc(C2SCCS2)c(Cl)c1 ?
28.2

Could you tell me which growth inhibition is on file for CC12CC3OC3CC1CCC1C2CCC2(C)C1CCC21OCCO1 (stereo not given) ?
-32.7

Could you tell me which growth inhibition is on file for CC1(c2ccccc2)OC1(C)c1ccccc1 (stereo not given) ?
-5.6

Could you tell me which growth inhibition is on file for COc1ccc(/C=N/n2cnc3c(c2=O)SC(=C(C#N)C#N)N3c2ccccc2)cc1 ?
-35.5

Could you tell me which growth inhibition is on file for CCCc1c(OC)c(=O)c2c(OC)cc(OC)c3c4c(OC)cc(OC)c5c(=O)c(OC)c(CCC)c(c1c23)c54 ?
92

Could you tell me which growth inhibition is on file for O=C(c1ccccc1)N1C(=S)N=C(Nc2ccccc2)C1=Nc1ccccc1 ?
-27.1

Could you tell me which growth inhibition is on file for CC(C)(C)NC1=NCCNC(c2ccccc2)=C1 ?
-52.2

Could you tell me which growth inhibition is on file for CC(O)C1OC(O)C2OC(C)(C)OC12 (stereo not given) ?
17.4

Could you tell me which growth inhibition is on file for COC1=C(OC)C(=O)C2=C(OCO2)C1=O ?
16.2

Could you tell me which growth inhibition is on file for Cc1ccccc1NC(=O)CN1CCCC(C)C1 (stereo not given) ?
-34.8

Could you tell me which growth inhibition is on file for COC(=O)C(C)OC(=O)OCC(C)C (stereo not given) ?
-1.9

Could you tell me which growth inhibition is on file for CCOC(=O)/C=C/C(=O)O.[Cu+2] ?
-14.3

Could you tell me which growth inhibition is on file for Nc1cc2c(O)cc(S(=O)(=O)O)cc2cc1S(=O)(=O)O ?
8.15

Could you tell me which growth inhibition is on file for CCOC(=O)C(CCC(=O)OC)C(=O)OCC ?
-1.75

Could you tell me which growth inhibition is on file for OCC1CCCCCCC1 ?
-19.7

Could you tell me which growth inhibition is on file for Cc1cc(NCCN(C)C)nc(Nc2ccc(Cl)cc2)n1 ?
19.4

Could you tell me which growth inhibition is on file for Cc1nc(SCC(=O)Nc2ccc(Cl)cc2)c2sc(=S)n(-c3ccccc3)c2n1 ?
4.6

Could you tell me which growth inhibition is on file for [O-][n+]1c(/C=C/c2cccc3ccccc23)cccc1/C=C/c1cccc2ccccc12 ?
1

Could you tell me which growth inhibition is on file for CC(C)NC(=O)N(C(=O)C(F)(F)F)C(C)C ?
7.45

Could you tell me which growth inhibition is on file for COc1ccc(N)c(C(O)CCNC(C)=O)c1 (stereo not given) ?
-23.2

Could you tell me which growth inhibition is on file for O=C(CN1C(=O)c2ccccc2C1=O)Oc1ccccc1 ?
-7.4

Could you tell me which growth inhibition is on file for CCCCCCCCCCCCCCCCCCOC(=O)c1cccnc1 ?
10.3

Could you tell me which growth inhibition is on file for Cn1c(C(=O)NN)cc2cc(OCc3ccccc3)ccc21 ?
5.75

Could you tell me which growth inhibition is on file for [Cl][Pt+2][Cl].[NH-]C1CCCC1[NH-] (stereo not given) ?
9

Could you tell me which growth inhibition is on file for CNC(=O)OCc1c(C)oc(-c2ccc(Cl)c(Cl)c2)c1COC(=O)NC ?
-7.15

Could you tell me which growth inhibition is on file for NC(=S)N/N=C\c1ncccc1OCc1cccc(N)c1 ?
46.9

Could you tell me which growth inhibition is on file for CCN(CC)CCOc1cccc(Oc2ccccc2)c1 ?
62.7

Could you tell me which growth inhibition is on file for COc1ccc(-c2cc(=O)c3cccc(CC(=O)O)c3o2)cc1 ?
11.7

Could you tell me which growth inhibition is on file for CC1(C)C(=O)/C=C\C(=O)C(C)(C)C(=O)/C=C\C(=O)C(C)(C)C(=O)/C=C\C(=O)C(C)(C)C(=O)/C=C\C1=O ?
0.25

Could you tell me which growth inhibition is on file for NC1=NCC(c2ccccn2)C1c1ccc(F)cc1 (stereo not given) ?
-34.9

Could you tell me which growth inhibition is on file for CC(C)(C)OC(=O)N(CCCN)CCCCN(CCCN)C(=O)OC(C)(C)C ?
-9.5

Could you tell me which growth inhibition is on file for O=C1c2ccccc2CN(C(=Nc2ccccc2)Nc2ccccc2)c2ccccc21 ?
2.95

Could you tell me which growth inhibition is on file for CC(=O)Oc1ccc(-c2ccccc2)cc1 ?
20.8

Could you tell me which growth inhibition is on file for c1ccc(C2=NOC(c3ccccc3)N2C23CC4CC(CC(C4)C2)C3)cc1 (stereo not given) ?
4.4

Could you tell me which growth inhibition is on file for Nc1cc(Br)cc2c1-c1ccc(Br)cc1C2=O ?
-10.6

Could you tell me which growth inhibition is on file for CCOc1ccc2nc(C)ccc2c1 ?
-14.7

Could you tell me which growth inhibition is on file for Cc1cc(C(C)C)c(C)cc1C(C)C ?
-4.25

Could you tell me which growth inhibition is on file for O=C(/C=N\O)c1ccncc1 ?
-16.9

Could you tell me which growth inhibition is on file for CC(C(=O)n1c2ccccc2c2ccccc21)N(c1ccccc1)c1ccccc1 (stereo not given) ?
-15.1

Could you tell me which growth inhibition is on file for NC(N)=NC(N)=Nc1ccccc1 ?
14.8

Could you tell me which growth inhibition is on file for CCOC(=O)c1ncn2c1[nH]c(=S)c1ccccc12 ?
-19.1

Could you tell me which growth inhibition is on file for O=C(Nc1cccc(O)c1)c1ccc([N+](=O)[O-])cc1 ?
18.6

Could you tell me which growth inhibition is on file for CCN(CC)Cc1cc(Oc2ccc(O)c(CN(CC)CC)c2)ccc1O ?
8.5

Could you tell me which growth inhibition is on file for O=C(/C(=C/c1ccccc1)N1CCOCC1)c1cccc2ccccc12 ?
-2.15

Could you tell me which growth inhibition is on file for CC(C)=C1OC(=O)C1(C)C ?
15.7

Could you tell me which growth inhibition is on file for CC(C)[C@@]12O[C@@H]1CC13OC1[C@@H](O)CC[C@@]32O (stereo not given in full) ?
-1.05

Could you tell me which growth inhibition is on file for C[N+](C)(C)CCOc1cccc(Br)c1 ?
14.5

Could you tell me which growth inhibition is on file for O=C(Oc1ccccc1Cl)C1=C(C(=O)Oc2ccccc2Cl)CCC1 ?
-1.2

* * *

- experiment.description: NCI Yeast Anticancer Drug Screen. Data for the mec2-1 strain (AID 157)
- conditions.used: S. cerevisiae mec2-1 strain, at 50.0 µM
This is part of a sample that, as a whole, favours compounds with a hit. Of some 79,000 tested, about 15% had one in any assay. Activity calls are given as the source filed them. Cut-off read from the data, not from the text of the source: active = growth inhibition above about 70%; inactive = the rest.
A correct response names exactly one class from active, inactive

Per the records of this test, what outcome belongs to O=c1c(-c2ccccc2)c2oc(c1-c1ccccc1)CSCc1cccc(c1)CSC2 ?
inactive

Per the records of this test, what outcome belongs to Cc1cncc(NS(=O)(=O)c2ccc(N)cc2)n1 ?
inactive

Per the records of this test, what outcome belongs to COc1cc(C2c3cc4c(cc3OC(N3CCCC3)C2C)OCO4)cc(OC)c1OC (stereo unspecified) ?
inactive

Per the records of this test, what outcome belongs to O=C(CO)CC(=O)C(=O)Nc1nc([N+](=O)[O-])cs1 ?
inactive

Per the records of this test, what outcome belongs to COC(=O)C(Cc1nc2ccccc2[nH]c1=O)C(=O)C(=O)Nc1ccc(OC)cc1[N+](=O)[O-] (stereo unspecified) ?
inactive

Per the records of this test, what outcome belongs to OC1CC2CCCCC2CC1Cl (stereo unspecified) ?
inactive

Per the records of this test, what outcome belongs to CCOC1C=CCCC1 (stereo unspecified) ?
inactive

Per the records of this test, what outcome belongs to COc1ccc(/C=N/N2CN(C(C)C(=O)O)C(C)(O)N=C2N)cc1OC (stereo unspecified) ?
inactive

Per the records of this test, what outcome belongs to Cc1ccc(Nc2c3ccccc3nc3ccccc23)cc1C ?
active

Per the records of this test, what outcome belongs to Cc1ccc(C(=N)c2ccccc2Cc2ccccc2)cc1C ?
inactive

Per the records of this test, what outcome belongs to COc1ccc2nc(NC(=O)C(=O)C(C#N)c3ccc(CC#N)cc3)sc2c1 (stereo unspecified) ?
inactive
